subject.of.test: JAK2 (Homo sapiens (Human), UniProt O60674)
Sequence (O60674 849-1124): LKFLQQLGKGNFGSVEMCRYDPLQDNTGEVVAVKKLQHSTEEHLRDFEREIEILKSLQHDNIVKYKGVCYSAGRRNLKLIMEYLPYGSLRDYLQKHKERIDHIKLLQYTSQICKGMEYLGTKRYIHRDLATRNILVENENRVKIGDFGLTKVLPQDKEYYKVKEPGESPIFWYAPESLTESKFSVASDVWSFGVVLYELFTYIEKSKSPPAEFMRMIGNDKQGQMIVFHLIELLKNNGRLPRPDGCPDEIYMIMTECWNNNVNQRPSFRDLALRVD
test.description: Jak Biochemical HTRF Assay, JAK2
condition.set: HTRF biochemical assay, GST-tagged catalytic domain; top concentration tested […]
Hi! Just check whether IC50 is below 80 nM. Below gives Met, equal or above gives Not met.

| smiles.str | assigned.category |
| --- | --- |
| CS(=O)(=O)c1ccc(Nc2nn([C@]3(CC#N)C[C@@H](C#N)C3)cc2C(N)=O)cc1 | Not met |

Below 80 nM on IC50? Entry `N#CCC1(n2cc(C(N)=O)c(Nc3ccc(F)cc3)n2)CCN(c2ccc(F)cc2)CC1` Met

Below 80 nM on IC50? Entry `Cc1c[nH]c(CN2CCC(CC#N)(n3cc(C(N)=O)c(Nc4ccnc(F)c4)n3)CC2)n1` Not met
